These measurements were taken from patent US10954252B1.

Overview of reported CC50 at 4 days across a group of compounds:
procedure summary: Compound cytotoxicity, XTT-based colorimetric assay
Format: cell-based
experimental conditions: human, uninfected MT2 cells, Table 1, day 4, XTT

CC50 at 4 days for COc1ccc(-n2c([C@H](Cc3cc(F)cc(F)c3)NC(=O)Cc3c[nH]c4ccc(O)cc34)nc3ncccc3c2=O)cc1 ?
> 10 µM

More entries:
Suppose we examine the compound COc1ccc2c(=O)n(-c3ccc(Cl)c4c(NS(C)(=O)=O)nn(C)c34)c([C@H](Cc3cc(F)cc(F)c3)NC(=O)Cn3nc(C(F)F)c4c3C(F)(F)C3CC43)nc2n1 (stereo in doubt) ; what CC50 at 4 days value has been reported?
> 10 µM

Follow-up entry: O=C(Cn1nc(C(F)F)c2c1C(F)(F)[C@@H]1C[C@H]21)N[C@@H](Cc1cc(F)cc(F)c1)c1nc2ncccc2c(=O)n1-c1ccc2scnc2c1
> 10 µM

And for CC(C)c1ccc(-n2c([C@H](Cc3cc(F)cc(F)c3)NC(=O)Cn3nc(C(F)F)c4c3C(F)(F)[C@@H]3C[C@H]43)nc3ccccc3c2=O)cn1 ?
7.9 µM

Try this compound next: O=C(Cn1nc(C(F)F)c2c1C(F)(F)[C@@H]1C[C@H]21)N[C@@H](Cc1cc(F)cc(F)c1)c1nc2ncccc2c(=O)n1-c1ccc(S(=O)(=O)N2CCOCC2)cc1
> 10 µM

O=C(Cn1nc(C(F)F)c2c1C(F)(F)[C@@H]1C[C@H]21)NC(Cc1cc(F)cc(F)c1)c1ncc2nc[nH]c2c1-c1ccc2scnc2c1 (single isomer, unassigned) , same question.
16.2 µM

What about this compound? O=C(Cc1c[nH]c2ccc(O)cc12)N[C@@H](Cc1cc(F)cc(F)c1)c1nc2ncccc2c(=O)n1-c1ccc2scnc2c1
> 10 µM

Quick one: Cn1nc(NS(C)(=O)=O)c2c(Cl)ccc(-n3c([C@H](Cc4cc(F)cc(F)c4)NC(=O)Cn4nc(C(F)F)c5c4C(F)(F)[C@@H]4C[C@H]54)nc4cccc(Cl)c4c3=O)c21 (single isomer, unassigned)
> 1 µM

Now consider CC(C)S(=O)(=O)NC(=O)c1cc(-c2cc3[nH]ncc3nc2[C@H](Cc2cc(F)cc(F)c2)NC(=O)Cn2nc(C(F)F)c3c2C(F)(F)[C@@H]2C[C@H]32)ccc1Cl and answer again.
> 10 µM

How about this compound: CC(C)c1ccc(-n2c([C@H](Cc3cc(F)cc(F)c3)NC(=O)Cn3nc(C(F)F)c4c3C(F)(F)[C@@H]3C[C@H]43)nc3ncccc3c2=O)cn1
6.9 µM
